Tested on: ROS1
Conditions: concentration: 1 μM, replicates: in singlicate; n = 1;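 also: KINOMEscan kinase panel screen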

- compound: "CCNc1nccc(-c2c(-c3ccc(F)cc3)ncn2C2CCN(C)CC2)n1"
  target: "ROS1"
  %Inh (%): 0
- compound: "CN(c1ccc(NC(=O)N2CCN(CCCN3CCOCC3)CC2)cc1)c1ccnc(Nc2ccc(CS(C)(=O)=O)cc2)n1.Cl [GW830899]"
  target: "ROS1"
  %Inh (%): 5
- compound: "Cc1ccc(O)cc1Nc1ccnc2cc(-c3ccc(CN4CCCCC4)o3)ccc12 [GW557777]"
  target: "ROS1"
  %Inh (%): 11
- compound: "O=C(O)C(F)(F)F.O=c1[nH]ccc2nc(N[C@@H]3CCNC3)nc(Nc3ccc4c(c3)S(=O)(=O)CC4)c12 [GSK2181306]"
  target: "ROS1"
  %Inh (%): 29

###

List of %Inh values.
Test system: MST3
Construct: gene STK24
Conditions: concentration: 1 μM, replicates: in singlicate; n = 1
property: %Inh (%)

- smi: "O=C(Nc1n[nH]c2cc(-c3cccs3)ccc12)C1CC1"
  result number: 7
- smi: "COC(=O)Nc1nc2ccc(Oc3ccc(CC(=O)Nc4cc(C(F)(F)F)ccc4F)cc3)cc2[nH]1"
  result number: 4
- smi: "CCn1cnc2c(NCc3ccccc3)ncnc21"
  result number: 5
- smi: "O=C(Nc1c(F)cccc1F)c1cc(C(=O)c2ccccc2F)c[nH]1"
  result number: 0
- smi: "Cc1cccc(Nc2nc(N[C@H]3CCCC[C@H]3N)ncc2C(N)=O)c1.Cl"
  result number: 52

###

System: BUB1
Settings: concentration: 1 μM, replicates: in singlicate; n = 1
List of %Inh values.
property: %Inh

- molecule: "Cl.N#CCc1ccc(Nc2nccc(Nc3ccc(Oc4ccccc4)cc3)n2)cc1"
  property: "%Inh"
  result: "0%"
- molecule: "COc1ccc(C)c(Nc2ccnc(Nc3ccc(-c4cnc[nH]4)cc3)n2)c1.Cl"
  property: "%Inh"
  result: "0%"
- molecule: "Cc1ccc(NC(=O)c2ccc(Cl)c(Cl)c2)cc1-c1ccc(C(=O)Nc2ccncc2)cc1"
  property: "%Inh"
  result: "6%"
- molecule: "COC(=O)Nc1nc2cc(Oc3ccc(NC(=O)Nc4cccc(SC)c4)cc3)ccc2[nH]1.Cl"
  property: "%Inh"
  result: "44%"
- molecule: "Cc1ccc(O)cc1Nc1ccnc2ccc(C(C)(C)C)cc12"
  property: "%Inh"
  result: "30%"
- molecule: "Cc1ccc(C)c(NC(=O)Nc2ccc(C)c(-c3ccc(C(=O)Nc4ccncc4)cc3)c2)c1"
  property: "%Inh"
  result: "4%"
- molecule: "Cn1cc(-c2ccc3c(c2)CCN3C(=O)Cc2cc(F)cc(F)c2F)c2c(N)ncnc21"
  property: "%Inh"
  result: "9%"
- molecule: "Cc1ccc(-c2ccc3occ(-c4ccc(S(C)=O)cc4)c3c2)nn1 (centres unmarked)"
  property: "%Inh"
  result: "5%"

###

Test system: ERK2
Construct: gene MAPK1
Conditions: concentration: 1 μM, replicates: in singlicate; n = 1
property: %Inh (%)

- compound: "COc1cccc(NC(=O)NCCNc2ccnc(Nc3ccc(F)cc3)n2)c1"
  result number: 0
- compound: "Cc1cccc(Nc2nc(N[C@H]3CCCC[C@H]3N)ncc2C(N)=O)c1.Cl"
  result number: 27
- compound: "COC(=O)Nc1nc2ccc(Oc3ccc(CC(=O)Nc4cc(C(F)(F)F)ccc4F)cc3)cc2[nH]1"
  result number: 0
- compound: "Cc1ccc(-c2ccc3occ(-c4ccc(S(C)=O)cc4)c3c2)nn1 (stereo not drawn)"
  result number: 7
- compound: "COc1cc(Nc2ccnc3cc(-c4ccncc4)ccc23)cc(OC)c1OC.Cl"
  result number: 0
- compound: "Cl.Cl.NC(CNC(=O)c1cc(Br)c(-c2ccnc3[nH]ccc23)s1)c1ccccc1 (stereo not drawn)"
  result number: 0
- compound: "CCNC(=O)/C=C/c1n[nH]c2cc(Sc3ccccc3C(=O)NC)ccc12"
  result number: 43
- compound: "Nc1ncc(-c2cn[nH]c2)c2scc(-c3ccc4c(c3)CCN4C(=O)Cc3ccccc3)c12"
  result number: 3
- compound: "Cc1cccc(Nc2nc(NCCN)ncc2C(N)=O)c1"
  result number: 0
- compound: "Fc1cc(Cl)ccc1Nc1ccnc2cc(-c3ccc(CN4CCOCC4)o3)ccc12"
  result number: 0
- compound: "Cl.Cl.NCC(NC(=O)c1cc(-c2cccnc2)c(-c2ccnc3[nH]ccc23)s1)c1ccccc1 (stereo not drawn)"
  result number: 8
- compound: "CCOc1nccc(-c2c(-c3ccc(F)cc3)ncn2C2CCNCC2)n1"
  result number: 0
- compound: "COc1cccc(CC(=O)N2CCc3cc(-c4cn(C)c5ncnc(N)c45)ccc32)c1"
  result number: 13
- compound: "c1ccc(Oc2ccc(Nc3ccnc4cc(-c5ccc(CN6CCCCC6)o5)ccc34)cc2)nc1"
  result number: 0
- compound: "COc1ccc(C2=C(Nc3cccc(O)c3)C(=O)NC2=O)cc1"
  result number: 0
- compound: "COc1ccc(C)c(Nc2ccnc(Nc3ccc(-c4cnc[nH]4)cc3)n2)c1.Cl"
  result number: 9
- compound: "O=C(Nc1n[nH]c2nc(-c3ccccc3)ccc12)C1CC1"
  result number: 3
- compound: "CCNc1nccc(-c2c(-c3ccc(F)cc3)ncn2C2CCN(C)CC2)n1"
  result number: 0

###

List of %Inh values.
Tested on: BMPR1A
Conditions: concentration: 1 μM, replicates: in singlicate; n = 1

- smi: "Cc1ccc(O)cc1Nc1ccnc2cc(-c3ccc(CN4CCCCC4)o3)ccc12"
  %Inh [%]: 61
- smi: "Cc1ccc(C)c(NC(=O)Nc2ccc(C)c(-c3ccc(C(=O)Nc4ccncc4)cc3)c2)c1"
  %Inh [%]: 0
- smi: "c1ccc(Oc2ccc(Nc3ccnc4cc(-c5ccc(CN6CCCCC6)o5)ccc34)cc2)nc1"
  %Inh [%]: 0
- smi: "Cn1cc(-c2cnc(N)c3c(-c4ccc5c(c4)CCN5C(=O)Cc4ccccc4)csc23)cn1"
  %Inh [%]: 1
- smi: "CC(C)c1nc(-c2ccc(F)c(NS(=O)(=O)c3c(F)cccc3F)c2)c(-c2ccnc(Nc3ccc(N4CCOCC4)nc3)n2)s1"
  %Inh [%]: 40
- smi: "Cc1cccc(Nc2nc(N[C@H]3CCCC[C@H]3N)ncc2C(N)=O)c1.Cl"
  %Inh [%]: 12
- smi: "Fc1cc(Cl)ccc1Nc1ccnc2cc(-c3ccc(CN4CCSCC4)o3)ccc12"
  %Inh [%]: 14
- smi: "CN(c1ccc2c(c1)nc(NCc1ccccc1)n2C)c1ccnc(Nc2ccc(CS(C)(=O)=O)cc2)n1.Cl"
  %Inh [%]: 0
- smi: "COC(=O)Nc1nc2ccc(Oc3ccc(NC(=O)Nc4cc(C(F)(F)F)ccc4F)cc3)cc2[nH]1.Cl"
  %Inh [%]: 18
- smi: "N#Cc1cnc2cc(-c3cnc(CNCCN4CCOCC4)s3)ccc2c1Nc1ccc(Oc2ccccc2)cc1"
  %Inh [%]: 0
- smi: "Cl.N#CCc1ccc(Nc2nccc(Nc3ccc(Oc4ccccc4)cc3)n2)cc1"
  %Inh [%]: 0
- smi: "COc1cccc(C2=C(Nc3cccc(O)c3)C(=O)NC2=O)c1"
  %Inh [%]: 0
- smi: "COc1cccc(CC(=O)N2CCc3cc(-c4cn(C)c5ncnc(N)c45)ccc32)c1"
  %Inh [%]: 6
- smi: "CCn1cnc2c(NCc3ccccc3)ncnc21"
  %Inh [%]: 0
- smi: "COc1ccc(C)c(Nc2ccnc(Nc3ccc(-c4cnc[nH]4)cc3)n2)c1.Cl"
  %Inh [%]: 70
- smi: "CSc1ccc(NC2=C(c3ccc(Cl)cc3)C(=O)NC2=O)cc1"
  %Inh [%]: 6
- smi: "O=C1NC(=O)C(c2ccccc2Cl)=C1Nc1cccc(Cl)c1"
  %Inh [%]: 0
- smi: "Cc1ccc(NC(=O)c2ccnc(N3CCCCC3)c2)cc1-c1ccc(C(=O)NCC2CC2)cc1"
  %Inh [%]: 0

###

Tested on: SIK
Details: concentration: 1 μM, replicates: in singlicate; n = 1
Please assign false whenever %Inh is at or above 3%, and true whenever it is below.

- compound: "Cn1cc(-c2cnc(N)c3c(-c4ccc5c(c4)CCN5C(=O)Cc4ccccc4)csc23)cn1"
  class: "false"
- compound: "Cn1cc(-c2ccc3c(c2)CCN3C(=O)Cc2cc(F)cc(C(F)(F)F)c2)c2c(N)ncnc21"
  class: "true"
- compound: "Cl.Cl.NCC(NC(=O)c1cc(-c2cccnc2)c(-c2ccnc3[nH]ccc23)s1)c1ccccc1 (centres unmarked)"
  class: "false"
- compound: "COc1cc(Nc2nccc(N3CCC(NC(=O)Nc4ccc5c(c4)OCO5)C3)n2)cc(OC)c1OC (centres unmarked)"
  class: "false"

###

System: NIK
Construct: gene MAP3K14
Conditions: concentration: 1 μM, replicates: in singlicate; n = 1
List of %Inh values.

- compound: "Cc1ccc(C)c(NC(=O)Nc2ccc(C)c(-c3ccc(C(=O)Nc4ccncc4)cc3)c2)c1 [GSK1398473]"
  %Inh / %: 4
- compound: "CS(=O)(=O)c1cccc(CNc2nc(Nc3ccc4c(c3)CCC(=O)N4)ncc2C(F)(F)F)c1"
  %Inh / %: 0
- compound: "COC(=O)Nc1nc2ccc(Oc3ccc(NC(=O)Nc4cc(C(F)(F)F)ccc4F)cc3)cc2[nH]1.Cl [GW654607]"
  %Inh / %: 60
- compound: "CC(C)c1nc(-c2ccc(F)c(NS(=O)(=O)c3c(F)cccc3F)c2)c(-c2ccnc(Nc3ccc(N4CCOCC4)nc3)n2)s1 [GSK1804250]"
  %Inh / %: 9
